Test: Kinetic solubility assay
Format: physicochemical
Details: PBS buffer, pH 7.4; read-out: Solubility Mean (mg/ml)
Bridge positions count the residues as written; N and C are the ends. Square brackets hold non-standard residues; d marks the D form. Peptide text beside a SMILES is read from it. Phe(4-CF3) = N[C@@H](Cc1ccc(C(F)(F)F)cc1)C(=O)O; Dmt = Cc1cc(O)cc(C)c1C[C@H](N)C(=O)O
observationType: solubility at 90 min (mg/mL)
Just the number please, in mg/mL, no unit attached.

Input: Consider the compound Cc1cc(O)cc(C)c1C[C@H](N)C(=O)N[C@@H]1CCCCNC(=O)C[C@@H](C(N)=O)NC(=O)[C@H](Cc2ccc(C(F)(F)F)cc2)NC(=O)[C@H](Cc2ccccc2)NC1=O [Peptide F-81, Dmt-c[D-Lys-Phe-p-CF3-Phe-Asp]NH2] (H-[Dmt][dK]F[Phe(4-CF3)]D-NH2; lactam 2-5 (inferred)) and give its measured solubility at 90 min.
Output: 0.27
